The measured values listed here are drawn from patent US10584117B2.

# measured on: human recombinant HDAC6 (Homo sapiens)
# Construct: purchased Calbiochem 382180
# Sequence (Q9UBN7 whole entry): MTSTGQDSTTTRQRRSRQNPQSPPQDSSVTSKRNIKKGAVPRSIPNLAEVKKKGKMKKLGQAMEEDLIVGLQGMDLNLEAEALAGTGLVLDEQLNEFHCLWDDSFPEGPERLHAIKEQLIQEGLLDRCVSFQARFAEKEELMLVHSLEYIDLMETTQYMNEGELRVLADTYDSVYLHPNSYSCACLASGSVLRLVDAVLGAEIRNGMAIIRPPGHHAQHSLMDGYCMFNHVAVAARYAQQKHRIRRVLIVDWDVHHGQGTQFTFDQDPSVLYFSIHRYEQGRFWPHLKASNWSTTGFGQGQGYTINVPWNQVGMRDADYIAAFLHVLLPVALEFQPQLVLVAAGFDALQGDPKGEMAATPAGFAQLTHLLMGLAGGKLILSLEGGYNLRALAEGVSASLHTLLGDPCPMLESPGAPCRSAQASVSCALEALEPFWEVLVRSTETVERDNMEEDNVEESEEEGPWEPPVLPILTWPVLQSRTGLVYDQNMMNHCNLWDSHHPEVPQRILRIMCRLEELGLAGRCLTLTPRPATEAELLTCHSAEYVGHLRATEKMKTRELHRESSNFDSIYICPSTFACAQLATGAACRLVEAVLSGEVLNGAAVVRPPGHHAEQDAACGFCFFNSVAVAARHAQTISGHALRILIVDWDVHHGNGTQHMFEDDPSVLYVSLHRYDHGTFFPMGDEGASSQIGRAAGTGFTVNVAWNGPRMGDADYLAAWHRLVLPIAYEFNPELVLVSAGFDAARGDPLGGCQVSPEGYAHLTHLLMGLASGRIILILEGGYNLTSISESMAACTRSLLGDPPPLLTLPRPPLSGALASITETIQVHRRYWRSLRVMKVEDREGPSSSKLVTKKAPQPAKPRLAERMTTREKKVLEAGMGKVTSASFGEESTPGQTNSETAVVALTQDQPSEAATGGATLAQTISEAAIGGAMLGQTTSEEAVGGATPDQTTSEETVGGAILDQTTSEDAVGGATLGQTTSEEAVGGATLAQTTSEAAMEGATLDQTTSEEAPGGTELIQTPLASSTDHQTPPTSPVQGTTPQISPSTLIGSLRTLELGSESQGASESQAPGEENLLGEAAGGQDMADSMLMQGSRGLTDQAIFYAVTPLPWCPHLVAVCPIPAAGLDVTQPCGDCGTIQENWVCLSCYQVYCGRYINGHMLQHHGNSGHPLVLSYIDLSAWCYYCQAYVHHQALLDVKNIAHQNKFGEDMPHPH
# experimental details: HDAC enzyme activity inhibition assay (HDAC6, fluorimetric kit)
# Type: biochemical
# reported conditions: HDAC6 versus HDAC1
// label 0 strictly below 700 fold in HDAC6 selectivity (fold); label 1 otherwise

O=C(C1CN(C(=O)C(F)(F)F)C1)N(Cc1ccc(-c2nnc(C(F)F)o2)cc1F)c1ccccc1 label 1

In: Is HDAC6 selectivity (fold) at least 700 fold? Consider "O=C(c1ccncc1)N(Cc1ccc(-c2nnc(C(F)F)o2)cn1)c1cccc(F)c1"
Out: label 1

In: Is HDAC6 selectivity (fold) at least 700 fold? Consider "Cl.O=C(C1CCNCC1)N(Cc1ccc(-c2nnc(C(F)(F)F)o2)cc1)c1ccccc1"
Out: label 0

In: Is HDAC6 selectivity (fold) at least 700 fold? Consider "O=C(CN1CCOCC1)N(Cc1ccc(-c2nnc(C(F)F)o2)cc1F)c1ccc(F)c(Cl)c1"
Out: label 1

In: Is HDAC6 selectivity (fold) at least 700 fold? Consider "CCC(=O)N1CCC(C(=O)N(Cc2ccc(-c3nnc(C(F)(F)F)o3)cc2F)c2ccccc2)CC1"
Out: label 1

In: Is HDAC6 selectivity (fold) at least 700 fold? Consider "Cl.O=C(C1CNC1)N(Cc1ccc(-c2nnc(C(F)(F)F)o2)cc1)c1ccccc1"
Out: label 0

---

# measured on: human recombinant HDAC6 (Homo sapiens)
# Construct: purchased Calbiochem 382180
# experimental details: HDAC enzyme activity inhibition assay (HDAC6, fluorimetric kit)
# Format: biochemical
# reported conditions: HDAC6 versus HDAC1
quantity kind: HDAC6 selectivity (fold)
Report the value in fold with no unit label.

Here's what some known entries look like.
compound	readout unit	HDAC6 selectivity (fold)
CS(=O)(=O)N1CCC(C(=O)N(Cc2ccc(-c3nnc(C(F)F)o3)cc2F)c2ccccc2)CC1 [Compound 11215]	fold	1667
CC(C)N1CCC(C(=O)N(Cc2ccc(-c3nnc(C(F)(F)F)o3)cc2)c2ccccc2)CC1 [Compound 11143]	fold	452
CC(=O)N1CC(C(=O)N(Cc2ccc(-c3nnc(C(F)F)o3)cc2F)c2ccccc2)C1 [Compound 11241]	fold	2857
CC(C)N1CC(C(=O)N(Cc2ccc(-c3nnc(C(F)F)o3)cc2F)c2cccc(F)c2)C1 [Compound 11329]	fold	1786

In: If you can, please state the reported HDAC6 selectivity (fold) value of CCN1CCC(C(=O)N(Cc2ccc(-c3nnc(C(F)(F)F)o3)cc2F)c2ccccc2)CC1 [Compound 11201] .
Out: 877

In: If you can, please state the reported HDAC6 selectivity (fold) value of CC(=O)N(Cc1ccc(-c2nnc(C(F)F)o2)cc1F)c1ccccc1 [Compound 11247] .
Out: 1887

In: If you can, please state the reported HDAC6 selectivity (fold) value of O=C(c1ccncc1)N(Cc1ccc(-c2nnc(C(F)F)o2)cc1F)c1cccc(F)c1 [Compound 11189] .
Out: 2564

In: If you can, please state the reported HDAC6 selectivity (fold) value of CC(C)C(=O)N1CC(C(=O)N(Cc2ccc(-c3nnc(C(F)(F)F)o3)cc2F)c2ccccc2)C1 [Compound 11236] .
Out: 1370

In: If you can, please state the reported HDAC6 selectivity (fold) value of CCN1CC(C(=O)N(Cc2ccc(-c3nnc(C(F)F)o3)cc2F)c2ccccc2)C1 [Compound 11239] .
Out: 3846

In: If you can, please state the reported HDAC6 selectivity (fold) value of CC(=O)N(Cc1ccc(-c2nnc(C(F)(F)F)o2)cc1)c1ccccc1 [Compound 11105] .
Out: 524

In: If you can, please state the reported HDAC6 selectivity (fold) value of CCC(=O)N(Cc1ccc(-c2nnc(C(F)F)o2)cc1F)c1cccc(F)c1 [Compound 11356] .
Out: 1961

In: If you can, please state the reported HDAC6 selectivity (fold) value of O=C(c1ccncc1)N(Cc1ccc(-c2nnc(C(F)F)o2)cn1)c1ccccc1 [Compound 11341] .
Out: 2941

In: If you can, please state the reported HDAC6 selectivity (fold) value of CC(=O)N1CCC(C(=O)N(Cc2ccc(-c3nnc(C(F)(F)F)o3)cc2)c2ccccc2)CC1 [Compound 11161] .
Out: 204

In: If you can, please state the reported HDAC6 selectivity (fold) value of CC(C)C(=O)N1CC(C(=O)N(Cc2ccc(-c3nnc(C(F)F)o3)cc2F)c2ccccc2)C1 [Compound 11243] .
Out: 3125

In: If you can, please state the reported HDAC6 selectivity (fold) value of CC(=O)N(Cc1ccc(-c2nnc(C(F)(F)F)o2)cc1F)c1ccccc1 [Compound 11246] .
Out: 758

In: If you can, please state the reported HDAC6 selectivity (fold) value of CCN1CC(C(=O)N(Cc2ccc(-c3nnc(C(F)(F)F)o3)cc2F)c2ccccc2)C1 [Compound 11233] .
Out: 2703
